- target-desc: DR2a (DRB5*01:01) (Homo sapiens, UniProt P01903+Q30154)
- assay-comment: fluorescence polarization competition binding assay, DR2a
Assign labels as follows, please: true (1) for IC50 below 20 µM; false (0) for IC50 equal to or exceeding 20 µM.

>  <compound>
CC(C)C[C@H](NC(=O)[C@H](C)NC(=O)[C@@H](NC(=O)[C@@H](N)CC(C)C)[C@@H](C)O)C(=O)N[C@@H](CC(N)=O)C(=O)N[C@@H](C)C(=O)N[C@@H](Cc1ccc(O)cc1)C(=O)N[C@H](C(=O)N[C@@H](CO)C(=O)N[C@@H](CCC(N)=O)C(=O)N[C@@H](CCC(N)=O)C(=O)N[C@@H](CC(C)C)C(=O)N[C@@H](CO)C(=O)N[C@@H](CC(=O)O)C(=O)N[C@@H](CO)C(=O)O)C(C)C [Peptide P11]

>  <label-class>
false (0)

$$$$
>  <compound>
CC[C@H](C)[C@H](NC(=O)[C@H](CC(=O)O)NC(=O)[C@H](CO)NC(=O)[C@H](CC(C)C)NC(=O)[C@H](CCC(N)=O)NC(=O)[C@H](CCC(N)=O)NC(=O)[C@H](CO)NC(=O)[C@@H](NC(=O)[C@H](Cc1ccc(O)cc1)NC(=O)[C@H](C)NC(=O)[C@H](CC(N)=O)NC(=O)[C@H](CC(C)C)NC(=O)[C@H](C)NC(=O)[C@@H](NC(=O)[C@@H](N)CC(C)C)[C@@H](C)O)C(C)C)C(=O)O [Peptide P11.HKU1]

>  <label-class>
false (0)

$$$$
>  <compound>
CC[C@H](C)[C@H](NC(=O)CNC(=O)[C@H](CC(=O)O)NC(=O)[C@H](CCC(N)=O)NC(=O)[C@H](CC(N)=O)NC(=O)[C@H](Cc1ccccc1)NC(=O)[C@H](C)NC(=O)[C@H](CC(C)C)NC(=O)[C@H](CC(C)C)NC(=O)[C@H](Cc1ccc(O)cc1)NC(=O)[C@H](CCC(N)=O)NC(=O)[C@H](CCCNC(=N)N)NC(=O)[C@@H](N)CO)C(=O)N[C@H](C(=O)N[C@@H](Cc1ccccc1)C(=O)N[C@@H](CC(N)=O)C(=O)O)[C@@H](C)CC [Peptide P13]

>  <label-class>
false (0)

$$$$
>  <compound>
CC(C)C[C@H](NC(=O)[C@H](C)NC(=O)[C@H](C)NC(=O)[C@@H](N)CC(C)C)C(=O)N[C@@H](CC(N)=O)C(=O)N[C@@H](C)C(=O)N[C@@H](Cc1ccccc1)C(=O)N[C@H](C(=O)N[C@@H](CO)C(=O)N[C@@H](CCC(N)=O)C(=O)N[C@H](C(=O)N[C@@H](CC(C)C)C(=O)N[C@@H](CC(N)=O)C(=O)N[C@@H](CCCCN)C(=O)N[C@@H](Cc1ccc(O)cc1)C(=O)O)C(C)C)C(C)C [Peptide P11.NL63]

>  <label-class>
true (1)

$$$$
>  <compound>
CC(C)C[C@H](NC(=O)[C@H](C)NC(=O)[C@H](C)NC(=O)[C@@H](N)CC(C)C)C(=O)N[C@@H](CC(N)=O)C(=O)N[C@H](C(=O)N[C@@H](Cc1ccccc1)C(=O)N[C@H](C(=O)N[C@@H](CO)C(=O)N[C@@H](Cc1c[nH]cn1)C(=O)N[C@H](C(=O)N[C@@H](CC(C)C)C(=O)N[C@H](C(=O)N[C@@H](CCCCN)C(=O)N[C@@H](Cc1ccc(O)cc1)C(=O)O)[C@@H](C)O)[C@@H](C)O)C(C)C)C(C)C [Peptide P11.229E]

>  <label-class>
true (1)

$$$$
>  <compound>
CC(C)[C@H](NC(=O)[C@H](CC(N)=O)NC(=O)CNC(=O)CNC(=O)[C@H](CO)NC(=O)[C@@H]1CCCN1)C(=O)N[C@H](C(=O)N1CCC[C@H]1C(=O)N[C@@H](Cc1ccc(O)cc1)C(=O)N[C@@H](Cc1ccc(O)cc1)C(=O)N[C@@H](CO)C(=O)N[C@@H](Cc1c[nH]c2ccccc12)C(=O)N[C@@H](Cc1ccccc1)C(=O)N[C@@H](CO)C(=O)NCC(=O)O)C(C)C [Peptide P10]

>  <label-class>
false (0)

$$$$

Numbers sourced from paper PMC10409285.
